- System: volume-regulated anion channels (VRAC)
- methodNotes: Whole cell membrane current
- studyConditions: representative data, Figs. 4 C (dashed line) and 5 B, Eq. 2
In this section, each of the compounds is paired with its reported r of the fitted curve.
Form field (numeric): enter value without unit.

Example cases with answers are listed next.
Query: // returns reported r of the fitted curve for input Nc1ncnc2c1ncn2[C@@H]1O[C@H](COP(=O)(O)OP(=O)(O)OP(=O)(O)O)[C@@H](O)[C@H]1O [ATP]
Reply: 0.22

Query: Need r of the fitted curve, item O=c1ccn([C@@H]2O[C@H](COP(=O)(O)OP(=O)(O)OP(=O)(O)O)[C@@H](O)[C@H]2O)c(=O)[nH]1 [UTP]
Reply: 0.13

Query: Can you look up the measured r of the fitted curve of Nc1ncnc2c1ncn2[C@@H]1O[C@H](COP(=O)(O)OP(=O)(O)O)[C@@H](O)[C@H]1O [ADP] for me?
Reply: 0.26

Query: Fill in the blank: the reported r of the fitted curve of Nc1ccn([C@@H]2O[C@H](COP(=O)(O)OP(=O)(O)OP(=O)(O)O)[C@@H](O)[C@H]2O)c(=O)n1 [CTP] is ____.
Reply: 0.057

Switching to the query record.
Query: Recorded r of the fitted curve of Nc1nc2c(ncn2[C@@H]2O[C@H](COP(=O)(O)OP(=O)(O)OP(=O)(O)O)[C@@H](O)[C@H]2O)c(=O)[nH]1 [GTP] , please.
Reply: 0.24
